measurement-target: P2Y purinoceptor 12 (Homo sapiens)
Sequence (Q9H244 whole entry): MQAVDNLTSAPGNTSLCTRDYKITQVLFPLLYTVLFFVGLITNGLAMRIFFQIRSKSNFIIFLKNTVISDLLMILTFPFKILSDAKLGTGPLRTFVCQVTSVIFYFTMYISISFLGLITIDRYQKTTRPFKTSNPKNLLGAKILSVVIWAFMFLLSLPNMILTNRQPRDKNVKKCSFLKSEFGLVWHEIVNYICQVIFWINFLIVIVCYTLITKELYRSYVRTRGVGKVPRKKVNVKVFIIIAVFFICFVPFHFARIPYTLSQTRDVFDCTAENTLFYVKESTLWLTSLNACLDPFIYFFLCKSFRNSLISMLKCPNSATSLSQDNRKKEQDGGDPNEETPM
procedure-details: Displacement of [33P]2MeS-ADP from P2Y12 receptor (unknown origin) transfected in CHO cells after 30 mins by scintillation counting analysis
Exercise: state measured IC50 for each of the molecules provided.

Batch request: IC50 for each of the following molecules.
1. CCCC(=O)c1cnn(-c2ccc(NC(=O)c3cn(CC(=O)N4CCN(CC(=O)N(C)C)CC4)c4ccc(Cl)cc34)cc2)c1C
2. CCCC(=O)c1cnn(-c2ccc(NC(=O)c3cn(CC(=O)N4CCN(CC5CC5)CC4)c4ccc(C)cc34)cc2)c1C
3. CCOC(=O)c1c(C)nn(-c2ccc(NC(=O)Nc3ccc(Cl)cc3)cc2)c1C
4. CCCC(=O)c1cnn(-c2ccc(NC(=O)c3cn(CC(=O)N4CCN(CCF)CC4)c4ccc(C)cc34)cc2)c1C
5. CCCC(=O)c1cnn(-c2ccc3c(c2)OCCN3C(=O)c2cn(CC(=O)N3CCN(C)CC3)c3ccc(Cl)cc23)c1C
6. CCCC(=O)c1cnn(-c2ccc(NC(=O)c3cn(CC(=O)NCCN4CCCC4)c4ccc(C)cc34)cc2)c1C

1. 11 nM
2. 29 nM
3. 1260 nM
4. 19 nM
5. 559 nM
6. 194 nM
